The measured values listed here are drawn from PubChem BioAssay (NCI).

Collected TGI values appear next to each entry.
- Test system: MALME-3M melanoma
- test protocol: NCI tumour cell line growth inhibition, 48 h

Nc1nonc1-c1nc2ccccc2n1Cc1ccc(F)cc1 :: > 100 µM
CCOC(=O)c1nc2ccccc2nc1NCc1ccc(OC)c(OC)c1 :: > 100 µM
Cc1ccc(S(=O)(=O)NC(=O)NCCc2ccccc2)cc1 :: > 100 µM
C=C(Cl)/C(=C\Cl)CCC(Cl)C(C)C (centres undefined) :: > 100 µM
COc1cc(-n2cc(-c3ccccc3)[nH]c2=O)cc(OC)c1OC :: > 100 µM

Entry under test: CC1=CC(C)(c2c[nH]c3ccccc23)CC(C)(C)c2c1[nH]c1ccccc21 (centres undefined) . Its TGI was 35 µM

Form: compound = O=c1c2ccccc2[nH]c2c(O)ccc(O)c12 ; TGI = 59.7 µM

The value of TGI measured for the compound CC(=O)Nc1ccc2c3c(cc(O)c2c1)N(C(=O)CCCCC(=O)N1CC(CCl)c2c1cc(O)c1cc(NC(C)=O)ccc21)CC3CCl (centres undefined) turned out to be 0.575 µM

response.value for C/C(=N\NC(=O)C[N+](C)(C)C)c1sc(-c2cccnc2)nc1C (field: TGI) = > 100 µM
